# Test system: MKN-45
# Assay summary: Cytotoxicity against human MKN45 cells assessed as cell viability at 5 uM after 72 hrs by MTT assay relative to control
# Format: functional
# Assay setup: MKN-45, 72 h, read-out: Activity
# Lookup of reported viability at 5 µM keyed by entry

Compound: CC(=O)O[C@H]1C[C@@]2(C)[C@@H](C[C@@H](O)[C@H]3[C@@]4(C)CC[C@@H](OC(=O)CCC(=O)n5cccn5)[C@@H](C)[C@@H]4CC[C@@]32C)/C1=C(\CCC=C(C)C)C(=O)OCc1ccccc1
viability at 5 µM: 83%
--
Compound: CC(=O)O[C@H]1C[C@@]2(C)[C@@H](C[C@@H](O)[C@H]3[C@@]4(C)CC[C@@H](OC(=O)C(N)CC(C)C)[C@@H](C)[C@@H]4CC[C@@]32C)/C1=C(\CCC=C(C)C)C(=O)OCc1ccccc1 (some centres undefined)
viability at 5 µM: 92%
--
Compound: CC(=O)O[C@H]1C[C@@]2(C)[C@@H](C[C@@H](O)[C@H]3[C@@]4(C)CC[C@@H](OC(=O)CCC(=O)O)[C@@H](C)[C@@H]4CC[C@@]32C)/C1=C(\CCC=C(C)C)C(=O)OCc1ccccc1
viability at 5 µM: 76%
--
Compound: CC(=O)O[C@H]1C[C@@]2(C)[C@@H](C[C@@H](O)[C@H]3[C@@]4(C)CC[C@@H](OC(=O)c5ccccc5C(=O)n5ccnc5)[C@@H](C)[C@@H]4CC[C@@]32C)/C1=C(\CCC=C(C)C)C(=O)OCc1ccccc1
viability at 5 µM: 92%
--
Compound: CC(=O)O[C@H]1C[C@@]2(C)[C@@H](C[C@@H](O)[C@H]3[C@@]4(C)CC[C@@H](OC(=O)c5nccnc5C(=O)O)[C@@H](C)[C@@H]4CC[C@@]32C)/C1=C(\CCC=C(C)C)C(=O)OCc1ccccc1
viability at 5 µM: 87%
--
Compound: CC(=O)O[C@H]1C[C@@]2(C)[C@@H](C[C@@H](O)[C@H]3[C@@]4(C)CC[C@@H](OC(=O)c5ccccc5C(=O)N5CCOCC5)[C@@H](C)[C@@H]4CC[C@@]32C)/C1=C(\CCC=C(C)C)C(=O)OCc1ccccc1
viability at 5 µM: 92%
--
Compound: CC(=O)O[C@H]1C[C@@]2(C)[C@@H](C[C@@H](O)[C@H]3[C@@]4(C)CC[C@@H](OC(=O)CCC(=O)N5CCN(C)CC5)[C@@H](C)[C@@H]4CC[C@@]32C)/C1=C(\CCC=C(C)C)C(=O)OCc1ccccc1
viability at 5 µM: 75%
--
Compound: CC(=O)O[C@H]1C[C@@]2(C)[C@@H](C[C@@H](O)[C@H]3[C@@]4(C)CC[C@@H](OC(=O)c5ccccc5C(=O)O)[C@@H](C)[C@@H]4CC[C@@]32C)/C1=C(\CCC=C(C)C)C(=O)OCc1ccccc1
viability at 5 µM: 76%
--
Compound: CC(=O)O[C@H]1C[C@@]2(C)[C@@H](C[C@@H](O)[C@H]3[C@@]4(C)CC[C@@H](OC(=O)c5ccccc5C(=O)N5CCN(C)CC5)[C@@H](C)[C@@H]4CC[C@@]32C)/C1=C(\CCC=C(C)C)C(=O)OCc1ccccc1
viability at 5 µM: 99%
--
Compound: CC(=O)O[C@H]1C[C@@]2(C)[C@@H](C[C@@H](O)[C@H]3[C@@]4(C)CC[C@@H](OC(=O)CCCCCCCCCCN)[C@@H](C)[C@@H]4CC[C@@]32C)/C1=C(\CCC=C(C)C)C(=O)OCc1ccccc1
viability at 5 µM: 5%
--
Compound: CC(=O)O[C@H]1C[C@@]2(C)[C@@H](C[C@@H](O)[C@H]3[C@@]4(C)CC[C@@H](OC(=O)CCC(=O)N5CCOCC5)[C@@H](C)[C@@H]4CC[C@@]32C)/C1=C(\CCC=C(C)C)C(=O)OCc1ccccc1
viability at 5 µM: 78%
--
Compound: CC(=O)O[C@H]1C[C@@]2(C)[C@@H](C[C@@H](O)[C@H]3[C@@]4(C)CC[C@@H](OC(=O)CN)[C@@H](C)[C@@H]4CC[C@@]32C)/C1=C(\CCC=C(C)C)C(=O)OCc1ccccc1
viability at 5 µM: 93%
--
Compound: CC(=O)O[C@H]1C[C@@]2(C)[C@@H](C[C@@H](O)[C@H]3[C@@]4(C)CC[C@@H](OC(=O)CCCCCCCN)[C@@H](C)[C@@H]4CC[C@@]32C)/C1=C(\CCC=C(C)C)C(=O)OCc1ccccc1
viability at 5 µM: 4%
--
Compound: CC(=O)O[C@H]1C[C@@]2(C)[C@@H](C[C@@H](O)[C@H]3[C@@]4(C)CC[C@@H](OC(=O)c5ccccc5C(=O)n5cccn5)[C@@H](C)[C@@H]4CC[C@@]32C)/C1=C(\CCC=C(C)C)C(=O)OCc1ccccc1
viability at 5 µM: 96%
--
Compound: CC(=O)O[C@H]1C[C@@]2(C)[C@@H](C[C@@H](O)[C@H]3[C@@]4(C)CC[C@@H](OC(=O)CCCN)[C@@H](C)[C@@H]4CC[C@@]32C)/C1=C(\CCC=C(C)C)C(=O)OCc1ccccc1
viability at 5 µM: 6%
--
Compound: CC(=O)O[C@H]1C[C@@]2(C)[C@@H](C[C@@H](O)[C@H]3[C@@]4(C)CC[C@@H](OC(=O)C(C)N)[C@@H](C)[C@@H]4CC[C@@]32C)/C1=C(\CCC=C(C)C)C(=O)OCc1ccccc1 (some centres undefined)
viability at 5 µM: 91%
--
Compound: CC(=O)O[C@H]1C[C@@]2(C)[C@@H](C[C@@H](O)[C@H]3[C@@]4(C)CC[C@@H](OC(=O)CCN)[C@@H](C)[C@@H]4CC[C@@]32C)/C1=C(\CCC=C(C)C)C(=O)OCc1ccccc1
viability at 5 µM: 5%
--
Compound: CC(=O)O[C@H]1C[C@@]2(C)[C@@H](C[C@@H](O)[C@H]3[C@@]4(C)CC[C@@H](OC(=O)[C@@H](N)CCCCN)[C@@H](C)[C@@H]4CC[C@@]32C)/C1=C(\CCC=C(C)C)C(=O)OCc1ccccc1
viability at 5 µM: 8%
--
Compound: CC(=O)O[C@H]1C[C@@]2(C)[C@@H](C[C@@H](O)[C@H]3[C@@]4(C)CC[C@@H](O)[C@@H](C)[C@@H]4CC[C@@]32C)/C1=C(\CCC=C(C)C)C(=O)O
viability at 5 µM: 83%

Values compiled from ChEMBL document CHEMBL4325897.
